Tested on: DLD-1
Assay: NCI tumour cell line growth inhibition, 48 h
Activity calls are given as the source filed them. Cut-off read from the data, not from the text of the source: active = GI50 up to about 1.1 µM and inactive = higher.
Below, each of the molecules is paired with its reported GI50 value.

Illustrative cases are given below, each with its answer.
1. CCC(C)NC1=C(NC(C)=O)C(=O)c2ccccc2C1=O (stereo unspecified)	27.4 µM (inactive)
2. Cc1ccc(C)c(NC(=O)C(=O)CC(=O)C2CCOC2=O)c1 (stereo unspecified)	> 100 µM (inactive)
3. O=C(CC1(O)C(=O)Nc2ccccc21)c1ccc2ccccc2c1 (stereo unspecified)	> 100 µM (inactive)
4. Cc1nc(-c2nc(C)c(C(=O)/C=C/c3ccc([N+](=O)[O-])cc3)s2)sc1C(=O)/C=C/c1ccc([N+](=O)[O-])cc1	> 100 µM (inactive)
5. CCOc1ccccc1NC(=O)CCc1nnc(S)[nH]1	> 100 µM (inactive)

GET /value?item= `Oc1cc(-c2ccc(Oc3ccccc3)cc2)nc2cc3c(cc12)OCO3` &field=GI50 returns > 100 µM (inactive)

GET /value?item= `Cc1cc2c(C)nn(Cc3ccccc3)c2c(C(N)=O)c1C` &field=GI50 returns > 100 µM (inactive)

Per the record, `CCOC(=O)/C(=C/c1ccc(C(F)(F)F)cc1)N(CC)CC` has GI50 of 54.1 µM (inactive)

Consider Cc1cc(Cl)ccc1NC(=O)CCCC(=O)C1CCCC1=O (stereo unspecified) . Its measured GI50 is > 100 µM (inactive)

Looking up NS(=O)(=O)c1ccc(NC(=O)C2C(=O)C(=O)N(c3ccc(S(N)(=O)=O)cc3)C2=O)cc1 (stereo unspecified) , I found its GI50 recorded as > 100 µM (inactive)

Per the record, O=C(O)C1Cc2[nH]cnc2CN1 (stereo unspecified) has GI50 of > 100 µM (inactive)

###

Tested on: SK-OV-3
Assay: NCI tumour cell line growth inhibition, 48 h
Calls of active or inactive are those of the source. Rule as the data show it: active = GI50 up to about 1.1 µM and inactive = higher.
Quantity Name: GI50

Previously resolved entries follow.
1. C/C(=N\NC(=N)N)C(CN1CCCCC1)C(c1ccccc1)c1c(O)c2ccccc2oc1=O (centres undefined)	> 100 µM (inactive)
2. COc1ccc(N2C(=O)c3cc(C)cnc3S2(=O)=O)cc1	> 100 µM (inactive)

Kindly note the recorded GI50 for CC(O)=NC(Cc1ccc2ccccc2c1)C(O)=NC(Cc1ccc(Cl)cc1)C(O)=NC(Cc1c[nH]c2ccccc12)C(O)=NC(CO)C(O)=NC(Cc1ccc(O)cc1)C(O)=NC(CCCN=C(N)N)C(O)=NC(CC(C)C)C(O)=NC(CCCN=C(N)N)C(=O)N1CCCC1C(O)=NC(C)C(=N)O (centres undefined) , which is 43.5 µM (inactive)

For record CC(C)(C)COC1C2(OCCO2)C2CCC1(C)C2(C)C (centres undefined) the listed GI50 is 66.2 µM (inactive)

Recorded result, O=NN(CCF)C(=O)NC1CC2CCC1C2 (centres undefined) , GI50: > 100 µM (inactive)

Recorded result, `CC(=O)/C(=C\NC(=S)Nc1ccc(S(N)(=O)=O)cc1)C(=O)Nc1ccccc1C` , GI50: 34.2 µM (inactive)

Recorded GI50 (compound Cc1ccccc1OC(C)C(=O)NN1C(=O)CSC1c1ccc(Cl)cc1 (centres undefined) ): 47.1 µM (inactive)

Note to self: GI50 recorded for CN(C)/N=C1\CC(c2ccccc2)C(C#N)(C#N)C1(C#N)C#N (centres undefined) was 50.1 µM (inactive)

Entry under test: `CC[C@@]12CCC(=S)N(CCSc3ccccc3)[C@@H]1c1c(n(S(=O)(=O)c3ccc(OC)cc3)c3ccccc13)CC2` . Its GI50 was > 100 µM (inactive)

###

Reported GI50 values follow for various compounds
System: SF-539
Experiment: NCI tumour cell line growth inhibition, 48 h
The source made the active and inactive calls. Rule as the data show it: active = GI50 up to about 1.1 µM and inactive = higher.

Some solved entries appear below for comparison.
1) CCOC(=O)c1cc([N+](=O)[O-])c(Sc2ncnc3nc[nH]c23)c([N+](=O)[O-])c1	3.09 µM (inactive)
2) C=CCN1C(=O)/C(=C/c2ccco2)N=C1SC1OC(COC(C)=O)C(OC(C)=O)C(OC(C)=O)C1OC(C)=O (stereo unspecified)	> 100 µM (inactive)
3) CCc1nc(N)c2nc(-c3ccc(C#N)cc3)oc2n1	> 100 µM (inactive)
4) O=C1c2cc3c(cc2CC12Cc1ccc4c(c1C2=O)CCC4)CCC3 (stereo unspecified)	> 100 µM (inactive)
5) C=CC(C)(C)/C=C/c1ccc(O)cc1	30.1 µM (inactive)
6) N/C(=N/O)c1cn(C2OC(CO)C(O)C2O)c2ncnc(NO)c12 (stereo unspecified)	0.117 µM (active)

So, `O=C(/C=C/c1ccccc1O)/C=C/c1ccccc1O` ? Its GI50 was 1.55 µM (inactive)

response.value for Cc1cc(C)c2c(=O)n(CN3CC4Nc5ccccc5C4C3)sc2n1 (stereo unspecified) (field: GI50) = 19.9 µM (inactive)

The reported value for `O=C(Cn1ccnc1[N+](=O)[O-])N(CCO)CCO` in terms of GI50 is > 250 µM (inactive)

// sample `[N-]=[N+]=N[C@H]1C[C@@H](CO)O[C@H]1n1cnc2c(N)ncnc21` , its GI50 was > 100 µM (inactive)

The reported value for `CCOC(=O)/C(=C/c1ccc(C(F)(F)F)cc1)N(CC)CC` in terms of GI50 is > 100 µM (inactive)

###

Test system: HOP-92
Experiment: NCI tumour cell line growth inhibition, 48 h
The source made the active and inactive calls. No stated cut-off is given here; in the data, active = GI50 up to about 1.1 µM and inactive = higher.
Field 'call' accepts active, inactive

Use these answered entries as a reference point.
1) COC1=C2CC(C)CC(OC)C(O)C(C)/C=C(\C)C(OC(N)=O)C(OC)/C=C\C=C(/C)C(=O)NC(=C(/C=N/N3CCCCC3)C1=O)C2=O (configuration not stated)	inactive
2) O=C(O)CSC1=NCCN1	inactive
3) N/C(=N/O)c1cn(C2OC(CO)C(O)C2O)c2ncnc(NO)c12 (configuration not stated)	active
4) O=C(/C=C/c1ccccc1Cl)c1ccc(Cl)cc1Cl	inactive

Prompt: Hi team, can someone confirm the assay call for O=NN(CCF)C(=O)NC1CC2CCC1C2 (configuration not stated) ?
Response: inactive

Prompt: In this assay, the call recorded for `O=C1OC(c2ccco2)=N/C1=C\c1ccc(Cl)c(Cl)c1` was what?
Response: inactive

Prompt: Field: outcome | Entry: `CC1=NN2C(=N)/C(=C/c3ccco3)C(=O)N=C2S1`
Response: inactive

###

System: UO-31
Assay: NCI tumour cell line growth inhibition, 48 h
Calls of active or inactive are those of the source. Rule as the data show it: active = GI50 up to about 1.1 µM and inactive = higher.
Quantity Name: GI50

Known results for molecules:
1) CCOC(=O)N1CCN(C=S)CC1	> 100 µM (inactive)
2) COC(=O)C1CC/C(=N\c2cccc(C(F)(F)F)c2)N1 (stereo not given)	> 100 µM (inactive)
3) CC[C@@H]1CC[C@@H]2[C@H](CC[C@]3(C)[C@@H](OC(C)=O)CC[C@@H]23)[C@H]1COC(C)=O	> 100 µM (inactive)
4) Cc1c(CNc2ccc(C(=O)NC(CC(=O)O)C(=O)O)cc2)ccc2nc(N)nc(N)c12 (stereo not given)	< 0.018 µM (active)
5) N=C1NC(c2ccc(Cl)cc2)=CC(c2cccc(Cl)c2)S1 (stereo not given)	29 µM (inactive)
6) Nc1ccc(N)c2c1C(=O)c1ccccc1C2=O	12.4 µM (inactive)
7) Cc1ccc(NC(=O)C2C(=O)N(c3ccc(C)c(C)c3)C(=O)/C2=N\NC(N)=O)cc1C (stereo not given)	57.4 µM (inactive)
8) Cc1ccc(NC(=O)CCc2nnc3s/c(=C\C=C\c4ccccc4)c(=O)n23)cc1	> 100 µM (inactive)
9) O=C(O)CCSC(=O)Nc1cccc(F)c1	> 100 µM (inactive)
10) CNC(=O)c1nnn(Cc2ccccc2)c1S	> 100 µM (inactive)

So for CC(CC(C)[C@H]1CCC2[C@H]3C(CC[C@@]21C)[C@@]1(C)CCC(O)C[C@H]1C[C@@H]3O)C(=O)O (stereo not given in full) , the logged GI50 turned out to be 66.2 µM (inactive)

response.value for `COc1ccc2c(c1)CC[C@@H]1[C@@H]2CC[C@]2(C)C(=O)/C(=C/c3ccc(O)c(OC)c3)C[C@@H]12` (field: GI50) = 71 µM (inactive)

Item: `COC(=O)c1ccc(NCc2cc(O)ccc2O)cc1O` | GI50: 1.82 µM (inactive)

###

GI50 by entry:
Tested on: HOP-62
Assay: NCI tumour cell line growth inhibition, 48 h
Activity calls are given as the source filed them. Cut-off read from the data, not from the text of the source: active = GI50 up to about 1.1 µM and inactive = higher.

Worked cases, answers included:
1. COc1ccc(C(=O)N=C2N(c3ccccc3)C(=N/c3ccccc3)/C(=N\c3ccccc3)N2c2ccccc2)cc1	8.63 µM (inactive)
2. Cc1cccc(NC(=O)Cc2nc3ccccc3s2)c1C	> 100 µM (inactive)
3. COC1OC(C(C)O)C2OC(C)(C)OC12 (centres undefined)	> 100 µM (inactive)
4. Cc1ccc2c(C(=O)c3c(C)n(CCN4CCOCC4)c4ccccc34)cccc2c1	27.3 µM (inactive)
5. CN1C(=O)C(O)CC1c1ccccc1F (centres undefined)	> 100 µM (inactive)
6. CC(CC[C@@]1(C)C(=O)CCC2O[C@]21C)[C@H]1C[C@@H](c2ccoc2)OC1=O (some centres undefined)	> 100 µM (inactive)
7. Cc1cc(C)nc(NS(=O)(=O)c2ccc(NC(=O)c3cccc4c(Nc5ccc(S(=O)(=O)Nc6nc(C)cc(C)n6)cc5)c5ccc(Cl)cc5nc34)cc2)n1	24.4 µM (inactive)
8. COC(=O)c1cccc2c1Oc1ccccc1S2	> 100 µM (inactive)
9. CC1=C(C(=O)NCc2ccccc2)C(c2ccc(N(C)C)cc2)C(C(=O)NCc2ccccc2)=C(C)N1	> 100 µM (inactive)
10. COC(=O)c1c[nH]cc1CCCCc1c[nH]cc1C(=O)OC	> 100 µM (inactive)

Consider `COC(=O)/C=C/c1ccc2c(c1)CCC2` . Its measured GI50 is > 100 µM (inactive)

Looking up `C=CCSc1nc2ccccc2c(=O)n1Cc1ccco1` , I see its GI50 listed as > 100 µM (inactive)
